test system: Dog eye (miosis); experiment: Miosis in dogs after topical dosing; type: in vivo; conditions: 0.1%
ASSAY_ENDPOINT: Miosis

Below: 5 molecules and their reported Miosis.
| MOLECULE | Miosis |
| --- | --- |
| O=C(O)CCC/C=C\C[C@@H]1[C@@H](/C=C/[C@@H](O)CCc2cccs2)[C@H](O)C[C@@H]1O | pinpt |
| O=C(O)CCC/C=C\C[C@@H]1[C@@H](/C=C/[C@@H](O)CCc2ccsc2)[C@H](O)C[C@@H]1O [drawing 12] | pinpoint |
| O=C(O)CCC/C=C\C[C@@H]1[C@@H](/C=C/[C@@H](O)CCc2ccoc2)[C@H](O)C[C@@H]1O | pinpoint |
| Cc1cc(CC[C@H](O)/C=C/[C@@H]2[C@@H](C/C=C\CCCC(=O)O)[C@@H](O)C[C@H]2O)cs1 | pinpt |
| CO[C@H](/C=C/[C@@H]1[C@@H](C/C=C\CCCC(=O)O)[C@@H](O)C[C@H]1O)CCc1ccsc1 | pinpt |

Now consider a different molecule.
// sample O=C(O)CCC/C=C\C[C@@H]1[C@@H](/C=C/[C@@H](O)CCc2ccc(Br)s2)[C@H](O)C[C@@H]1O , its Miosis was pinpoint

* * *

system: Dog eye (miosis); assay: Miosis in dogs after topical dosing; assay type: in vivo; details: 0.1%

| COMPOUND | Miosis |
| --- | --- |
| O=C(O)CCC/C=C\C[C@@H]1[C@@H](/C=C/[C@H](O)CCc2cccs2)[C@H](O)C[C@@H]1O | pinpt |
| O=C(O)CCC/C=C\C[C@@H]1[C@@H](/C=C/[C@@H](O)CCc2ccco2)[C@H](O)C[C@@H]1O | pinpoint |
| O=C(O)CCC/C=C\C[C@@H]1[C@@H](/C=C/[C@@H](O)CCc2cc(Cl)sc2Cl)[C@H](O)C[C@@H]1O [drawing 28] | pinpt |
| O=C(O)CCC/C=C\C[C@@H]1[C@@H](/C=C/[C@@H](O)CCc2ccsc2Cl)[C@H](O)C[C@@H]1O | pinpoint |

* * *

system: Dog eye (hyperemia); test: Ocular surface hyperemia in dogs after topical dosing; assay type: in vivo; parameters: scale not given here; details: 0.01%
ASSAY_ENDPOINT: Hyp (hyperemia score)

| SMILES_INPUT | RECORDED_NUMBER |
| --- | --- |
| O=C(O)CCC/C=C\C[C@@H]1[C@@H](/C=C/[C@@H](O)CCc2ccco2)[C@H](O)C[C@@H]1O | 0.54 |

a: Cc1cc(CC[C@H](O)/C=C/[C@@H]2[C@@H](C/C=C\CCCC(=O)O)[C@@H](O)C[C@H]2O)cs1
b: O=C(O)CCC/C=C\C[C@@H]1[C@@H](/C=C/[C@@H](O)CCc2ccoc2)[C@H](O)C[C@@H]1O
c: O=C(O)CCC/C=C\C[C@@H]1[C@@H](/C=C/[C@@H](O)CCc2cc3ccccc3o2)[C@H](O)C[C@@H]1O
Q) Falling order of Hyp (hyperemia score), please. Sort the labels as requested; that list is your answer.
A) b, a, c

* * *

test system: Dog eye (hyperemia); assay: Ocular surface hyperemia in dogs after topical dosing; assay type: in vivo; parameters: scale not given here; conditions: 0.1%
ASSAY_ENDPOINT: Hyp (hyperemia score)

The cases that follow already have their Hyp (hyperemia score) on record.
| COMPOUND | Hyp (hyperemia score) |
| --- | --- |
| O=C(O)CCC/C=C\C[C@@H]1[C@@H](/C=C/[C@@H](O)CCc2ccco2)[C@H](O)C[C@@H]1O | 0.67 |
| O=C(O)CCC/C=C\C[C@@H]1[C@@H](/C=C/[C@@H](O)CCc2ccoc2)[C@H](O)C[C@@H]1O | 0.38 |
| Cc1cc(CC[C@H](O)/C=C/[C@@H]2[C@@H](C/C=C\CCCC(=O)O)[C@@H](O)C[C@H]2O)cs1 | 1.38 |
| O=C(O)CCC/C=C\C[C@@H]1[C@@H](/C=C/[C@H](O)CCc2cccs2)[C@H](O)C[C@@H]1O | 0.79 |

I: O=C(O)CCC/C=C\C[C@@H]1[C@@H](/C=C/[C@@H](O)CCc2ccc(Br)s2)[C@H](O)C[C@@H]1O
II: O=C(O)CCC/C=C\C[C@@H]1[C@@H](/C=C/[C@@H](O)CCc2nccs2)[C@H](O)C[C@@H]1O
Q) Hi, I'm comparing I with II and wondering which one has the bigger number for Hyp (hyperemia score). Any idea? Write the label of whichever entry you select.
A) I
(I: 1.0, II: 0.6)

1: O=C(O)CCC/C=C\C[C@@H]1[C@@H](/C=C/[C@@H](O)CCc2ccsc2Cl)[C@H](O)C[C@@H]1O
2: O=C(O)CCC/C=C\C[C@@H]1[C@@H](/C=C/[C@@H](O)CCc2ccsc2)[C@H](O)C[C@@H]1O [drawing 12]
Q) Which record would sort first by descending Hyp (hyperemia score), 1 or 2 ? Refer to your chosen item by its label in the answer.
A) 1
(1: 1.13, 2: 0.6)

* * *

molecular target: UniProt:A0A286XLZ9; experiment: EP3-activity: inhibition of the twitch response induced by electrical field stimulation in the isolated guinea pig vas deferens; assay type: cell-based; conditions: pa = printed beside some values, read-out: EC50 (nM) EP3, first value of the cell
ASSAY_ENDPOINT: EC50

The cases that follow already have their EC50 on record.
| COMPOUND | EC50 |
| --- | --- |
| O=C(O)CCC/C=C\C[C@@H]1[C@@H](/C=C/[C@@H](O)CCc2cc(Cl)sc2Cl)[C@H](O)C[C@@H]1O [drawing 28] | > 10000 nM |
| O=C(O)CCC/C=C\C[C@@H]1[C@@H](/C=C/[C@H](O)CCc2cccs2)[C@H](O)C[C@@H]1O | > 10000 nM |

Documented EC50 of Cc1ccc(CC[C@H](O)/C=C/[C@@H]2[C@@H](C/C=C\CCCC(=O)O)[C@@H](O)C[C@H]2O)s1 : 341 nM

Value of EC50 reported for the compound NC(=O)CCC/C=C\C[C@@H]1[C@@H](/C=C/[C@@H](O)CCc2ccsc2)[C@H](O)C[C@@H]1O is > 10000 nM

EC50 reported for this compound O=C(O)CCC/C=C\C[C@@H]1[C@@H](/C=C/[C@@H](O)CCc2cc3ccccc3s2)[C@H](O)C[C@@H]1O : ~10000 nM

* * *

Reported EC50 is given for each of the following compounds.
target: TP receptor (Rattus norvegicus, UniProt P34978); construct: rings of the isolated rat thoracic aorta; from tissue; host or cells: isolated rat thoracic aorta rings; assay: TP-vasoconstrictor activity: contraction of rings of the isolated rat thoracic aorta; assay type: cell-based; details: isolated rat thoracic aorta contraction; read-out: EC50 (nM) TP
Sequence (P34978 whole entry): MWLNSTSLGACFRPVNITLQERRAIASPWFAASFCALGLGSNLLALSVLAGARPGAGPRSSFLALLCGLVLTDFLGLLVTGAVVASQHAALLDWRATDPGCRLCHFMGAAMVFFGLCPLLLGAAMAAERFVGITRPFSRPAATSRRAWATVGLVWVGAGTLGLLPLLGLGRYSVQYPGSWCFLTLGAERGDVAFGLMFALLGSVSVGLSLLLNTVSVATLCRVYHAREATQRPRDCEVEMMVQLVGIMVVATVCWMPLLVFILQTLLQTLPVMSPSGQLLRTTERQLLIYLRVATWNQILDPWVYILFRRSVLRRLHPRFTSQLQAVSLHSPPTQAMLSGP

| SMILES_INPUT | EXPERIMENTAL_TARGET | EC50 |
| --- | --- | --- |
| CCc1ccc(CC[C@H](O)/C=C/[C@@H]2[C@@H](C/C=C\CCCC(=O)O)[C@@H](O)C[C@H]2O)s1 | TP receptor (Rattus norvegicus, UniProt P34978) | > 10000 nM |
| Cc1ccc(CC[C@H](O)/C=C/[C@@H]2[C@@H](C/C=C\CCCC(=O)O)[C@@H](O)C[C@H]2O)s1 | TP receptor (Rattus norvegicus, UniProt P34978) | > 10000 nM |
| Cc1cc(CC[C@H](O)/C=C/[C@@H]2[C@@H](C/C=C\CCCC(=O)O)[C@@H](O)C[C@H]2O)cs1 | TP receptor (Rattus norvegicus, UniProt P34978) | ~10000 nM |
| NC(=O)CCC/C=C\C[C@@H]1[C@@H](/C=C/[C@@H](O)CCc2ccsc2)[C@H](O)C[C@@H]1O | TP receptor (Rattus norvegicus, UniProt P34978) | > 10000 nM |
| CO[C@H](/C=C/[C@@H]1[C@@H](C/C=C\CCCC(=O)O)[C@@H](O)C[C@H]1O)CCc1ccsc1 | TP receptor (Rattus norvegicus, UniProt P34978) | ~10000 nM |
| O=C(O)CCC/C=C\C[C@@H]1[C@@H](/C=C/[C@@H](O)CCc2ccco2)[C@H](O)C[C@@H]1O | TP receptor (Rattus norvegicus, UniProt P34978) | ~10000 nM |

Note to self: EC50 of O=C(O)CCC/C=C\C[C@@H]1[C@@H](/C=C/[C@H](O)CCc2cccs2)[C@H](O)C[C@@H]1O with TP receptor (Rattus norvegicus, UniProt P34978) was > 10000 nM

EC50 of NC(=O)CCC/C=C\C[C@@H]1[C@@H](/C=C/[C@@H](O)CCc2cc(Cl)sc2Cl)[C@H](O)C[C@@H]1O , assay on TP receptor (Rattus norvegicus, UniProt P34978), is > 10000 nM
